- experimental-details: Toxicity in orally dosed mouse assessed as induction of untoward effects
- Assay type: organism-based
- test-parameters: in vivo, po
endpoint-name: Activity

>  <compound>
O=C([O-])C1C/C(=C2\CCN(c3ccccc3)C2=O)c2ccc(Cl)cc2N1.[Na+] (single isomer, unassigned; (-))

>  <endpoint-name>
Activity

>  <value-reported>
Non-Toxic

$$$$
>  <compound>
O=C([O-])C1C/C(=C2\CCN(c3cccnc3)C2=O)c2ccc(Cl)cc2N1.[Na+] (racemic)

>  <endpoint-name>
Activity

>  <value-reported>
Non-Toxic

$$$$
>  <compound>
O=C([O-])C1C/C(=C2/CCN(c3ccccc3)C2=O)c2c(Cl)cc(Cl)cc2N1.[Na+] (stereo not drawn)

>  <endpoint-name>
Activity

>  <value-reported>
Non-Toxic

$$$$
